For each entry below, report its IC50 value.
System: MCF7
Assay: Cytotoxicity against Homo sapiens (human) MCF7 cells after 48 hr by SRB assay
Type: functional, cell-based
Details: MCF7, 48 h
Give bare numbers, in µM.

{"columns": ["Compound", "IC50 (µM)"],
 "data": [
  ["S=c1[nH]c2c(c(=S)[nH]1)C(c1cccc(Br)c1)C1=C(CCCC1)N2 (stereo not drawn)", 4.5]
]}

Batch: IC50 for all items listed.
1. CCCCn1c(=S)[nH]c2c(c1=N)C(c1ccccc1)C1=C(CCCC1)N2 (stereo not drawn)
2. COc1ccc(C2C3=C(CCCC3)Nc3[nH]c(=S)n(-c4ccccc4)c(=N)c32)cc1OC (stereo not drawn)
3. COc1ccc(/C=N/n2cnc3c(c2=N)C(c2ccccc2)C2=C(CCCC2)N3)cc1OC (stereo not drawn)
4. COc1ccc(C2C3=C(CCCC3)Nc3ncnc(N)c32)cc1OC (stereo not drawn)
5. COc1ccc(C2C3=C(CCCC3)Nc3ncn(/N=C/c4ccc(Cl)cc4)c(=N)c32)cc1OC (stereo not drawn)
6. Cc1nc2c(c(=O)[nH]1)C(c1cccc(Br)c1)C1=C(CCCC1)N2 (stereo not drawn)

Reply:
1: 5.7; 2: 5.3; 3: 5.37; 4: 3.62; 5: 3.76; 6: 4.03

Batch: IC50 for all items listed.
1. Cc1nc2c(c(=O)[nH]1)C(c1ccccc1)C1=C(CCCC1)N2 (stereo not drawn)
2. CCOC(=O)/N=c1/c2c(ncn1NC(=O)OCC)NC1=C(CCCC1)C2c1ccccc1 (stereo not drawn)
3. COc1ccc(/C=N/n2cnc3c(c2=N)C(c2ccc(OC)c(OC)c2)C2=C(CCCC2)N3)cc1OC (stereo not drawn)
4. N=c1c2c([nH]c(=S)n1-c1ccccc1)NC1=C(CCCC1)C2c1ccccc1 (stereo not drawn)
5. Nc1ncnc2c1C(c1ccc(Cl)cc1)C1=C(CCCC1)N2 (stereo not drawn)

Reply:
1. 4.97
2. 5.44
3. 6.17
4. 6.98
5. 3.89

----------
For each entry below, report its IC50 value.
Test: Displacement of methyl green from DNA after 24 hr by spectrophotometric analysis
Answers are plain numbers, in µM.

The following molecules have reported results that may help.
{"columns": ["Molecule", "Unit Abbrev", "IC50"],
 "data": [
  ["c1ccc(C2C3=C(CCCC3)Nc3ncn4ncnc4c32)cc1 (configuration not stated)", "µM", 88],
  ["N=c1c2c(ncn1/N=C/c1ccc(Cl)cc1)NC1=C(CCCC1)C2c1ccccc1 (configuration not stated)", "µM", 88],
  ["COc1ccc(C2C3=C(CCCC3)Nc3[nH]c(=S)n(-c4ccccc4)c(=N)c32)cc1OC (configuration not stated)", "µM", 40]
]}

Batch: IC50 for all items listed.
1. CCCCn1c(=S)[nH]c2c(c1=N)C(c1ccc(Cl)cc1)C1=C(CCCC1)N2 (configuration not stated)
2. COc1ccc(C2C3=C(CCCC3)Nc3ncnc(N)c32)cc1OC (configuration not stated)
3. CCOC(=O)/N=c1/c2c(ncn1NC(=O)OCC)NC1=C(CCCC1)C2c1ccccc1 (configuration not stated)
4. Brc1cccc(C2C3=C(CCCC3)Nc3ncn4ncnc4c32)c1 (configuration not stated)
5. COc1ccc(/C=N/n2cnc3c(c2=N)C(c2ccc(OC)c(OC)c2)C2=C(CCCC2)N3)cc1OC (configuration not stated)

Reply:
88
12
40
90
38

Batch: IC50 for all items listed.
1. N=c1c2c([nH]c(=S)n1-c1ccccc1)NC1=C(CCCC1)C2c1ccccc1 (configuration not stated)
2. N=c1c2c(ncn1/N=C/c1ccc(Cl)cc1)NC1=C(CCCC1)C2c1ccc(Cl)cc1 (configuration not stated)
3. Cc1nc2c(c(=O)[nH]1)C(c1cccc(Br)c1)C1=C(CCCC1)N2 (configuration not stated)
4. COc1ccc(C2C3=C(CCCC3)Nc3ncn(/N=C/c4ccc(Cl)cc4)c(=N)c32)cc1OC (configuration not stated)
5. Cc1nc2c(c(=O)[nH]1)C(c1ccccc1)C1=C(CCCC1)N2 (configuration not stated)
6. O=c1[nH]cnc2c1C(c1ccccc1)C1=C(CCCC1)N2 (configuration not stated)

Reply:
1. 25
2. 70
3. 32
4. 14
5. 22
6. 88

Batch: IC50 for all items listed.
1. COc1ccc(C2C3=C(CCCC3)Nc3[nH]c(=S)[nH]c(=S)c32)cc1OC (configuration not stated)
2. N=c1c2c([nH]c(=S)n1-c1ccccc1)NC1=C(CCCC1)C2c1ccc(Cl)cc1 (configuration not stated)
3. COc1ccc(/C=N/n2cnc3c(c2=N)C(c2ccccc2)C2=C(CCCC2)N3)cc1OC (configuration not stated)
4. Nc1ncnc2c1C(c1ccc(Cl)cc1)C1=C(CCCC1)N2 (configuration not stated)
5. S=c1[nH]c2c(c(=S)[nH]1)C(c1cccc(Br)c1)C1=C(CCCC1)N2 (configuration not stated)
6. S=c1[nH]c2c(c(=S)[nH]1)C(c1ccccc1)C1=C(CCCC1)N2 (configuration not stated)
7. COc1ccc(C2C3=C(CCCC3)Nc3nc(C)[nH]c(=O)c32)cc1OC (configuration not stated)
8. CCCCn1c(=S)[nH]c2c(c1=N)C(c1ccccc1)C1=C(CCCC1)N2 (configuration not stated)

Reply:
1: 38; 2: 55; 3: 32; 4: 25; 5: 76; 6: 72; 7: 25; 8: 72

src = ChEMBL document CHEMBL3046896
